tested on: A549; assay: Cytotoxicity against human A549 cells after 24 hrs by YO-PRO-1 assay; assay type: functional, cell-based; conditions: A549, 24 h
OBSERVABLE: IC50

1. COc1cc2c(c(OC)c1OC)-c1ccc(OC)c(=O)cc1[C@@H](NC(C)=O)CC2 [COLCHICINE]	0.0108 µg/mL

Q: Please give the documented IC50 of CC(=O)O[C@H]1C(=O)[C@@]2(C)[C@H]([C@H](OC(=O)c3ccccc3)[C@]3(O)C[C@H](OC(=O)[C@H](O)[C@@H](NC(=O)c4ccccc4)c4ccccc4)C(C)=C1C3(C)C)[C@]1(OC(C)=O)CO[C@@H]1C[C@@H]2O [PACLITAXEL]
Result: 0.0196 µg/mL

Q: Please report IC50 for the following molecule: COC[C@H]1OC(=O)c2coc3c2[C@@]1(C)C1=C(C3=O)[C@@H]2CCC(=O)[C@@]2(C)C[C@H]1OC(C)=O [WORTMANNIN]
Result: 0.00428 µg/mL

Q: Please give measured IC50 of the following entry: COc1cc(C[C@@H](C)[C@H](C)Cc2ccc(O)c(OC)c2)ccc1O [(-)-DIHYDROGUAIARETICACID]
Result: 7.49 µM
